target: Kras and SOS1 (biotin-tagged human Kras loaded with GDP, His-tagged human SOS1) (Homo sapiens, UniProt P01116, G12D); construct: made in house; host or cells: E. coli (stated for Kras only); assay: Protein-protein interaction inhibition between Kras and SOS1 (KrasGl2D-SOS PPI) using AlphaScreen; assay type: binding; conditions: AlphaScreen; biotin-tagged human Kras loaded with GDP, His-tagged human SOS1; read-out: KRAS G12D-SOS PPI IC50
Sequence (P01116 1-188 isoform P01116-2 G12D): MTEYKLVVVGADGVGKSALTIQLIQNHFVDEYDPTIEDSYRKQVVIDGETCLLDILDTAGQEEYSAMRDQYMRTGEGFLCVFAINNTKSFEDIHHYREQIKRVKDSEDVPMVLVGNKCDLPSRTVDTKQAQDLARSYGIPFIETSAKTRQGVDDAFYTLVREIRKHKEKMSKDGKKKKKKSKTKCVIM
Positions of bridges follow the written chain, without caps; N, C: chain ends. Non-standard residues stand in square brackets, D forms with d. Residues, ends and D or L forms follow the SMILES beside them. *: point of attachment. hPhe(3-Cl-4-CF3) = N[C@@H](CCc1ccc(C(F)(F)F)c(Cl)c1)C(=O)O; NMePhe(4-CF3) = CN[C@@H](Cc1ccc(C(F)(F)F)cc1)C(=O)O; 3Oxa8azabicyclo(3.2.1)octane = C1CC2COCC1N2*; NMePhe(4-Me) = CN[C@@H](Cc1ccc(C)cc1)C(=O)O; NMeAla(cPent) = CN[C@@H](CC1CCCC1)C(=O)O; NMeGly(cPent) = CN[C@H](C(=O)O)C1CCCC1; NMeCha = CN[C@@H](CC1CCCCC1)C(=O)O; Azetidine(3,3-F2) = FC1(F)CN(*)C1; NMeChg = CN[C@H](C(=O)O)C1CCCCC1; NMeI = CC[C@H](C)[C@H](NC)C(=O)O; NMeD = CN[C@@H](CC(=O)O)C(=O)O; NMeL = CN[C@@H](CC(C)C)C(=O)O; NMeAbu = CC[C@H](NC)C(=O)O; NMeA = CN[C@@H](C)C(=O)O; Pyrrolidide = C1CCN(*)C1; Ac5c = NC1(C(=O)O)CCCC1; Aze = O=C(O)[C@@H]1CCN1; NPrGly = CCCNCC(=O)O; Sar = CNCC(=O)O
PROPERTY LABEL: IC50 (nM)

- MOLECULE: "CC[C@H](C)[C@@H]1NC(=O)[C@H](CC(C)C)N(C)C(=O)C[C@@H](C(=O)N2CCCC2)N(C)C(=O)[C@H](C2CCCCC2)N(C)C(=O)C2(CCCC2)NC(=O)[C@@H]2CCCN2C(=O)[C@H](CCc2ccc(C(F)(F)F)c(Cl)c2)NC(=O)CN(C)C(=O)[C@H](Cc2ccc(C(F)(F)F)cc2)N(C)C(=O)CN(C)C(=O)CN(C)C1=O [Compound 1978] ([NMeL]I[Sar][Sar][NMePhe(4-CF3)][Sar][hPhe(3-Cl-4-CF3)]P[Ac5c][NMeChg][NMeD]-Pyrrolidide; lactam N-11)"
  REPORTED: 0.51
- MOLECULE: "CC[C@H](C)[C@@H]1NC(=O)[C@H](CC)N(C)C(=O)C[C@@H](C(=O)N2C3CCC2COC3)N(C)C(=O)[C@H](C2CCCCC2)N(C)C(=O)C2(CCCC2)NC(=O)[C@@H]2CCCN2C(=O)[C@H](CCc2ccc(C(F)(F)F)c(Cl)c2)NC(=O)CN(C)C(=O)[C@H](CC2CCCC2)N(C)C(=O)CN(C)C(=O)CN(C)C1=O [Compound 1877] ([NMeAbu]I[Sar][Sar][NMeAla(cPent)][Sar][hPhe(3-Cl-4-CF3)]P[Ac5c][NMeChg][NMeD]-{3Oxa8azabicyclo(3.2.1)octane}; lactam N-11)"
  REPORTED: 0.86
- MOLECULE: "CC[C@H](C)[C@@H]1NC(=O)[C@H](CC(C)C)N(C)C(=O)C[C@@H](C(=O)N(C)C)N(C)C(=O)[C@H](C2CCCC2)N(C)C(=O)C2(CCCC2)NC(=O)[C@H](CC(=O)N2CC(F)(F)C2)N(C)C(=O)[C@H](CCc2ccc(C(F)(F)F)c(Cl)c2)NC(=O)CN(C)C(=O)[C@H](CC2CCCCC2)N(C)C(=O)[C@@H]2CCN2C(=O)[C@H](C)N(C)C1=O [Compound 761] ([NMeL]I[NMeA][Aze][NMeCha][Sar][hPhe(3-Cl-4-CF3)][NMeD](Azetidine(3,3-F2))[Ac5c][NMeGly(cPent)][NMeD]-NMe2; lactam N-11)"
  REPORTED: 0.57
- MOLECULE: "CCCN1CC(=O)N(C)[C@@H]([C@@H](C)CC)C(=O)N(C)[C@H](C(=O)N(C)C)CC(=O)N(C)[C@@H](CC(C)C)C(=O)N[C@@H]([C@@H](C)CC)C(=O)N(C)[C@@H](C)C(=O)N2CC[C@H]2C(=O)N(C)[C@@H](Cc2ccc(C)cc2)C(=O)N(C)CC(=O)N[C@@H](CCc2ccc(C(F)(F)F)c(Cl)c2)C(=O)N2CCC[C@H]2C1=O [Compound 1131] ([NMeL]I[NMeA][Aze][NMePhe(4-Me)][Sar][hPhe(3-Cl-4-CF3)]P[NPrGly][NMeI][NMeD]-NMe2; lactam N-11)"
  REPORTED: 13
